# tgt: PAR1 (Homo sapiens)
# Construct: endogenous in cells
# test name: Inhibition of PAR1-mediated platelet aggregation induced by TRAP (96-well format)
# condition notes: washed platelets from blood of healthy volunteers; agonist TRAP (thrombin-receptor activating peptide) solution 70-100 μM; AUC at 650 nm, 37° C., 20 minutes
reported property: IC50 (nM)

P = CC(C)(C)c1cc(C(=O)Cn2c(C3CC3)c3ccccn3c2=N)cc(C(C)(C)C)c1O
Q = CCOc1cc2cn(CC(=O)c3cc4c(c(C(C)(C)C)c3)OCCN4C)c(=N)n2cc1C(=O)NC
R = CCOC(=O)c1cc(OC)n2c(=N)n(CC(=O)c3cc(N4CCOCC4)c(OC)c(C(C)(C)C)c3)cc2c1
S = COC(=O)c1ccc2cn(CC(=O)c3cc(N4CCOCC4)c(OC)c(C(C)(C)C)c3)c(=N)n2c1
T = CCOc1ccc2n(c1=O)C(=N)N(CC(=O)c1cc(N3CCOCC3)c(OC)c(C(C)(C)C)c1)C2
Prompt line: Sort key = IC50. Sort direction = ascending. Apply to the list above. Submit the labels in the order that the ranking request calls for.
Response line: Q, R, S, P, T

---

# tgt: PAR1 (Homo sapiens, UniProt P25116)
# Construct: endogenous in cells
# Sequence (P25116 22-425): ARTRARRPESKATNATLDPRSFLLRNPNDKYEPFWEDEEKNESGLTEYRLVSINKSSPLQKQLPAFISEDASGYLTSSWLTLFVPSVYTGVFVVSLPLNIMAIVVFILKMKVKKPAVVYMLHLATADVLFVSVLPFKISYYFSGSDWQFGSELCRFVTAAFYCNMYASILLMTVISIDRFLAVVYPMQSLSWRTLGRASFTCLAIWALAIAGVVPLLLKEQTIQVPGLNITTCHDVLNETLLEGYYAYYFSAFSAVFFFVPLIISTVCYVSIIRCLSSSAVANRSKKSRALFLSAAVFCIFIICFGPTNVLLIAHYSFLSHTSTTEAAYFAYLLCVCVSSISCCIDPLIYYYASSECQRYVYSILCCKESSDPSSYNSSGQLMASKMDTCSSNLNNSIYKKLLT
# test name: Inhibition of PAR1-mediated platelet aggregation induced by TRAP (96-well format)
# condition notes: washed platelets from blood of healthy volunteers; agonist TRAP (thrombin-receptor activating peptide) solution 70-100 μM; AUC at 650 nm, 37° C., 20 minutes
reported property: IC50 (µM)

[
  {
    "chemical structure": "CC(C)(C)c1cc(C(=O)Cn2cc3cc(C(F)(F)F)ccn3c2=N)cc(C(C)(C)C)c1O",
    "reported property": "IC50",
    "unit name": "µM",
    "numeric value": 0.73
  }
]

A = CCOc1cc2cn(CC(=O)c3cc(N4CCOCC4)c(OC)c(C(C)(C)C)c3)c(=N)n2cc1C(=O)NC
B = N=c1n(CC(=O)c2cccc(S(F)(F)(F)(F)F)c2)cc2ccccn12
Prompt line: Pick one: A or B . Which has the bigger IC50 number? Give the label under which the chosen entry appears.
Response line: B
